Target: Mutant CD33-GFP M17 (F21Y) on 293FT cells (UniProt P20138)
Sequence (P20138 18-364 F21Y): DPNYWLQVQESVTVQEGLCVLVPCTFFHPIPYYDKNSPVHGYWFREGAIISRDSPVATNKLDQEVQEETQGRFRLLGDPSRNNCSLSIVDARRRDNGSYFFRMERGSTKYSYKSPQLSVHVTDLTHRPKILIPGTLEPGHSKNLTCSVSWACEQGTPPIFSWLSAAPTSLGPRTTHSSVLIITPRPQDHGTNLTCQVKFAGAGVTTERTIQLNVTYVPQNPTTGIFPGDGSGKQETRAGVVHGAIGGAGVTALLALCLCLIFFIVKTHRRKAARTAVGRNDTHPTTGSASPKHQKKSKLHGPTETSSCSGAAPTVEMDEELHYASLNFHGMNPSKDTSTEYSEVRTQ
Assay: FACS, mutant CD33-GFP on 293FT cells
// FACS binding data lookup, one value per entry

sdCD33_8 (VHH, sdAb from a naive llama phage library; also called 424; sdAb424) VHH: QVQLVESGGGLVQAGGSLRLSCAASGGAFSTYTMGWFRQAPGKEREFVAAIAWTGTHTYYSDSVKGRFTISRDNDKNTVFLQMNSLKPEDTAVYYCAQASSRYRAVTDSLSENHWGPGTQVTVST :: 99

Okay, next one:
// FACS binding data lookup, binder = sdCD33_4 (VHH) VHH: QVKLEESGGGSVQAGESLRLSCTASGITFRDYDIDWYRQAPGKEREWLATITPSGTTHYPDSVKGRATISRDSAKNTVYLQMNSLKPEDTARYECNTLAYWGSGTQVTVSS , result: 98.5
